system: SK-MEL-5; assay: NCI tumour cell line growth inhibition, 48 h
Activity calls are given as the source filed them. No stated cut-off is given here; in the data, active = GI50 up to about 1.1 µM and inactive = higher. Where a SMILES comes first, the peptide text is derived from it. The star is where a group is joined. Cbz = O=C(OCc1ccccc1)*
Classes used: active, inactive

[[record]]
molecule = "Cc1ccc2c(c1)SC(c1cc3c(cc1Br)OCO3)S2 (centres undefined)"
label_value = "inactive"

[[record]]
molecule = "COc1ccc2nc(-n3c(/C=C/c4ccccc4O)nc4ccccc4c3=O)sc2c1"
label_value = "inactive"

[[record]]
molecule = "CSC(C1c2ccccc2N(c2ccc(C)cc2)C2=NC(=O)N(C)C(=O)C21Cl)S(=O)(=O)c1ccc(C)cc1 (centres undefined)"
label_value = "inactive"

[[record]]
molecule = "Cc1ccccc1/N=N/c1ccc(/N=N/c2c(O)ccc3cc(S(=O)(=O)O)cc(S(=O)(=O)O)c23)c(C)c1"
label_value = "inactive"

[[record]]
molecule = "Cc1ccc(S(=O)(=O)NNC(=O)Nc2ccc(Cl)cc2)cc1"
label_value = "inactive"

[[record]]
molecule = "CCSC1=CC2(O)N(CCc3ccc(OC)c(OC)c3)C(=O)CC2(C(=O)OC)CC1=O (centres undefined)"
label_value = "inactive"

[[record]]
molecule = "CC1(C)C2CCC3(C2)CS(=O)(=O)N2OC231 (centres undefined)"
label_value = "inactive"

[[record]]
molecule = "Fc1ccc(C(OCCN2CC3CCC(C2)N3CCCc2ccccc2)c2ccc(F)cc2)cc1"
label_value = "inactive"

[[record]]
molecule = "COc1ccc(-c2oc3c(OC)c(OC)cc(O)c3c(=O)c2OC)cc1"
label_value = "inactive"

[[record]]
molecule = "CC(C)(C)OC(=O)C1=C(N)N(Cc2ccccc2)C2(C)C=CC(=O)C=C12 (centres undefined)"
label_value = "inactive"

[[record]]
molecule = "COc1ccc(C(=O)/C=C/c2ccc(OCC(=O)O)cc2)cc1"
label_value = "inactive"

[[record]]
molecule = "N#Cc1c(N)nc(S)c(C#N)c1-c1ccccc1"
label_value = "inactive"

[[record]]
molecule = "C=C[C@]1(C)CCC2=C(CCC3C2(C)CCC[C@]3(C)CO)C1 (some centres undefined)"
label_value = "inactive"

[[record]]
molecule = "COc1ccc(CNC(=O)[C@H](Cc2ccc(O)cn2)NC(C)=O)cc1"
label_value = "inactive"

[[record]]
molecule = "COC(=O)C1=Nc2c(C)nn(-c3ccccc3)c2N=C(c2ccccc2)C1"
label_value = "inactive"

[[record]]
molecule = "N#CC(C(=O)C(=O)C(C#N)c1ccc(Br)cc1)c1ccc(Br)cc1 (centres undefined)"
label_value = "inactive"

[[record]]
molecule = "CC(=O)O[C@@H]1C2=C(C)C=C(O2)[C@H]2O[C@]2(C)C[C@H]2C=C(C(=O)O2)[C@H](OC(C)=O)CC1[C@@]1(C)CO1 (some centres undefined)"
label_value = "inactive"

[[record]]
molecule = "Cc1cc(OCc2nnc3n2S(=O)(=O)c2ccccc2N3C)ccc1Cl"
label_value = "inactive"

[[record]]
molecule = "O=C(Nc1cccc2cnccc12)c1cc2c(cc1Cl)Sc1nccn1S2(=O)=O"
label_value = "inactive"

[[record]]
molecule = "N#CCCN(c1ccc(/C=C2\\N=C(c3ccc(Cl)cc3)OC2=O)cc1)S(=O)(=O)c1ccccc1"
label_value = "inactive"

[[record]]
molecule = "CC1C=C(OC(=O)c2ccccc2)C(=O)C(n2cc(F)c(=O)[nH]c2=O)O1 (centres undefined)"
label_value = "inactive"

[[record]]
molecule = "CCOC(=O)/C(=N\\Nc1ccc(-n2c(C)nc3ccccc3c2=O)cc1)C(C)=O"
label_value = "inactive"

[[record]]
molecule = "COC(=O)C(CC(C)C)NC(=O)C(CCCNC(=N)N)NC(=O)OCc1ccccc1 (stereo not drawn) (Cbz-Arg-Leu-OMe; configuration not given here)"
label_value = "inactive"

[[record]]
molecule = "COc1ccc(Cn2c3c(cc(OC(C)=O)c2=O)Cc2ccccc2-3)cc1"
label_value = "inactive"

[[record]]
molecule = "C=C1C(=O)O[C@@H]2[C@H](O)[C@@H](C)[C@@H]3C=CC(=O)[C@@]3(C)[C@@H](OC(=O)/C(C)=C/C)[C@H]12"
label_value = "inactive"

[[record]]
molecule = "O=c1cc(NNc2ccccc2)[nH]c(=S)[nH]1"
label_value = "inactive"

[[record]]
molecule = "C/C(CC(=O)Nc1ccc([N+](=O)[O-])cc1)=N\\NC(N)=O"
label_value = "inactive"

[[record]]
molecule = "O=c1c2cccnc2ncn1CCCN1CCOCC1"
label_value = "inactive"

[[record]]
molecule = "COC(=O)c1c2c(cc3c1CC1(Cc4ccccc4C1=O)C3)CCC2 (centres undefined)"
label_value = "inactive"

[[record]]
molecule = "NC(CCCCNCc1ccccc1O)C(=O)O (centres undefined)"
label_value = "inactive"

[[record]]
molecule = "C/C(CC(=O)Nc1ccccc1)=N\\NC(N)=S"
label_value = "inactive"

[[record]]
molecule = "COc1cc2c(cc1O)N=C[C@@H]1CC[C@@H](O)N1C2=O.COc1cc2c(cc1O)N=C[C@@H]1CC[C@H](O)N1C2=O"
label_value = "active"

[[record]]
molecule = "COc1ccc(C(=O)/C=C/c2ccc(O)c(O)c2)c(OC)c1"
label_value = "inactive"

[[record]]
molecule = "COc1ccc(NC(C)=O)cc1N1C(=O)/C(=C\\c2ccccc2)SC1c1cc(OC)c(OC)c(OC)c1 (centres undefined)"
label_value = "inactive"

